Reference for the values: the supplement of paper PMC10567573

B1: SNX8 (parent)
chain: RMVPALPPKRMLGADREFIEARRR

# Variants of: B1
# Experiment description: protein stability index of a GFP-peptide fusion (GPS, HEK-293T) (PSI 1-6); higher = more stable;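 note: lentivirally expressed fusions sorted by FACS into six bins by GFP to DsRed ratio, PSI derived from sequencing read proportions per bin multiplied by bin number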
# Measurement setup: c terminus: a fixed tail appended
Readout type: protein stability index
Could you respond with only the numeric value?

Query: protein stability index; subject: `A5V`
4.01

Here is the next variant: `L6A`
4

Now this one: `M2A`
3.94

How about `L12M` ?
3.95

Same read-out for `R24G` ?
3.94

Now the variant `I19E`
4.11

Cool, now `L6Q`
4.02

Similarly, `A14S` ?
3.9

# repeat for `R16S`
3.91

Cool, now `M2R`
3.94

Record: `D15Q`
3.93

Same again, this time with `E20C`
4.06

`R16A` ?
4.04

Another variant to check: `V3T`
4.1

Let us now turn to `R10I`
3.94
